Assay: osmotic lysis modulators in infected erythrocytes, primary screen, PSAC antagonist project, cell-based, P. falciparum Indochina, OD700, 3 h (AID 1156)
Conditions: higher = more signal, called active from +8 up or from −8 down
Here the recorded z-score is given for each entry.

# Molecule, z-score
records = [
    ("O=C1O[C@@H](c2ccccc2)[C@@H](c2ccccc2)N2[C@@H](c3ccccc3OCCO)[C@]3(C(=O)Nc4ccc(C#CCCO)cc43)[C@@H](C(=O)N3CCCCCCC3)[C@H]12", 0.352),
    ("CCCNC(=O)[C@@]1(c2ccc([N+](=O)[O-])cc2)CC(=O)N(C2CCCCC2)[C@@H]1c1ccc(CO)cc1", 1.21),
    ("COc1cccc(/C=C/C=O)c1", -0.648),
    ("COC(=O)[C@@]1(Cc2ccc(F)cc2)[C@H]2c3cc(C(=O)N(C)C)n(Cc4cc(F)cc5c4OCOC5)c3C[C@H]2CN1C(=O)c1ccccc1", 0.366),
    ("CC1CC/C=C\\[C@H]2OC34C=CCN(c5ccc(Cl)cc5)C(=O)[C@H]3N(CCCCCO)C(=O)[C@]4(C)C2C(=O)O1 (some centres not stated)", -0.175),
    ("O=C1c2ccccc2[C@](Cc2ccccc2I)(C(=O)NCC(F)(F)F)[C@H](c2ccc(CO)cc2)N1C1CCCCC1", 2),
    ("CN(C)C(=O)[C@]1(CCS(=O)(=O)c2ccccc2)N=C(c2ccc(OCCCO)cc2)O[C@@H]1c1ccccc1N=[N+]=[N-]", 2.03),
]

###

This listing pairs compounds with measured z-score.
Assay: HepG2 cell viability effects, profiling panel, calcein-AM fluorescence, 48 h, basal (AID 1164); note: test concentration not given here
Conditions: higher = more signal

# Smiles Str, z-score
records = [
    ("COCCOC(=O)N1C(=O)[C@@]2(c3cc(C#CC4=CCCCC4)ccc31)[C@H](c1ccccc1OCCO)N1[C@H](c3ccccc3)[C@H](c3ccccc3)OC(=O)[C@H]1[C@@H]2C(=O)N1CCCCCCC1", -0.599),
    ("COC(=O)[C@@]1(Cc2ccccc2)[C@H]2c3cc(C(=O)N(C)C)n(CCN4CNCC4=O)c3C[C@H]2CN1C(=O)c1ccccc1", 0.0701),
    ("CN(C)C(=O)[C@@]1(Cc2ccccc2CN=[N+]=[N-])N=C(c2ccc(OCCCO)cc2)O[C@H]1c1ccccc1CN=[N+]=[N-]", -1.29),
]

###

Molecular target: Epidermal growth factor receptor (Homo sapiens) (UniProt P00533)
Sequence (P00533 whole entry, looked up): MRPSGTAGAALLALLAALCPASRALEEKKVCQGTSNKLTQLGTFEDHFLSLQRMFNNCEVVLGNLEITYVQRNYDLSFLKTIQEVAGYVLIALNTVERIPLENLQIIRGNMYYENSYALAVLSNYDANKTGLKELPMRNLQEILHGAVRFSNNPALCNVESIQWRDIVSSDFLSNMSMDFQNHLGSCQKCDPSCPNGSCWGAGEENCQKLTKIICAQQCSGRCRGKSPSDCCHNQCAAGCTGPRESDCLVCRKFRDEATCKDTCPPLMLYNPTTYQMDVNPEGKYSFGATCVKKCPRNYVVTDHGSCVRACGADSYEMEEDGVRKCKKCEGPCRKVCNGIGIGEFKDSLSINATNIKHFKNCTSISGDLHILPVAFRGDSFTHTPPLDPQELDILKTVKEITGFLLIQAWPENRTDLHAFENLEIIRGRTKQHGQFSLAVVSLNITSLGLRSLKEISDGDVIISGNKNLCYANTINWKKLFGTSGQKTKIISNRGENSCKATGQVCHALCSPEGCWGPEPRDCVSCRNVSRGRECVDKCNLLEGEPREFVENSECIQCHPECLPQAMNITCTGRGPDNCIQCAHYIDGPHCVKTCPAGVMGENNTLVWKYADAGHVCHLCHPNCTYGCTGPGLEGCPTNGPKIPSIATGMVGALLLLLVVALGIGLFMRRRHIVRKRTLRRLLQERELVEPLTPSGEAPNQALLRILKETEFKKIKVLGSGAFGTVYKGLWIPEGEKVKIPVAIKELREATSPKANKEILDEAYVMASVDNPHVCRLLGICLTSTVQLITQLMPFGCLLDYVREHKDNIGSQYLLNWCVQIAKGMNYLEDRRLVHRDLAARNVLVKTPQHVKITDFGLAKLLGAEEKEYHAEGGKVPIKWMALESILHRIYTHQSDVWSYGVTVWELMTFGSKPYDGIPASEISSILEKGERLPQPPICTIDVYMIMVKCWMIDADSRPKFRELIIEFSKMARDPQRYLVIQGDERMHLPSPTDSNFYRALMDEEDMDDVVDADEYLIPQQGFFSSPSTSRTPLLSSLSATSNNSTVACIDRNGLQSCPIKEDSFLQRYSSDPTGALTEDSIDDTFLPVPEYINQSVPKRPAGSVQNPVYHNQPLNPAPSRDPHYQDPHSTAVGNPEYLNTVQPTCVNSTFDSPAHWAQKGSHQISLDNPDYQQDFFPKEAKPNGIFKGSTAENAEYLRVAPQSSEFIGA
Experiment: EGFR binders on small-molecule microarrays, primary screen, biochemical, small-molecule microarray, 635 nm fluorescence (AID 1104);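 note: score merges 667 nm emission intensity with spot signal to noise over triplicate slides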
Conditions: EGFR binding, higher = more signal
Catalogue of composite z-score values
Measured Endpoint: composite z-score

# Molecule, Measured Endpoint, Recorded Value
rows = [
    ("CCCC[C@@H](O)C1=C(COc2ccccc2)C[C@H]2C(=O)N(C)C(=O)[C@H]2[C@H]1CO", "composite z-score", -0.333),
    ("COC(=O)[C@@]1(Cc2ccccc2)[C@H]2c3cc(C(=O)N(C)C)n(CCN4CNCC4=O)c3C[C@H]2CN1C(=O)c1ccccc1", "composite z-score", -1.71),
    ("[N-]=[N+]=NCc1ccccc1C[C@@]1(C(=O)N2CCCCC2)N=C(c2ccc(OCCCO)cc2)O[C@@H]1c1ccccc1", "composite z-score", -0.451),
    ("COC1OC[C@]2(C)[C@H]3C4=C(CN2C(=O)OC(C)(C)C)[C@H](C)C(CO)C(CO)C4CC[C@@H]13 (some centres not stated)", "composite z-score", 0.0188),
    ("CCCCCCCCCCC(O)C1C=CC2C(=O)N(C)C(=O)C2N1Nc1ccc([N+](=O)[O-])cc1[N+](=O)[O-] (configuration not stated)", "composite z-score", -0.497),
    ("CN(C)C(=O)C1N=C(c2ccc(OCCCO)cc2)N(c2ccccc2)O1 (configuration not stated)", "composite z-score", 0.662),
    ("CC=CC(O)C1C=CC2C(=O)N(c3ccccc3)C(=O)C2N1Nc1ccccc1F (configuration not stated)", "composite z-score", 0.114),
    ("C=CCOC(=O)[C@H]1[C@@H]2C(=O)O[C@@H](c3ccccc3)[C@@H](c3ccccc3)N2[C@@H](c2ccc(OCCOC(=O)[C@@H]3C[C@@H]4C(=O)N[C@@H](CCCCNC(C)=O)C(=O)N4[C@@H]3c3ccc(O)cc3)cc2)[C@]12C(=O)Nc1ccc(I)cc12", "composite z-score", 1.08),
    ("COC(=O)c1ccc([C@H](NC(=O)c2ccco2)[C@]2(C)C[C@H]2C2CCCCC2)cc1", "composite z-score", -0.808),
    ("COCCOC(=O)N1C(=O)[C@@]2(c3cc(C#CC4=CCCCC4)ccc31)[C@H](c1ccccc1OCCO)N1[C@H](c3ccccc3)[C@H](c3ccccc3)OC(=O)[C@H]1[C@@H]2C(=O)Nc1nc2ccccc2s1", "composite z-score", 0.416),
    ("COC(=O)C(CC#Cc1ccc2c(c1)[C@]1(C(=O)N2)[C@H](C(=O)N2CCN(c3ncccn3)CC2)[C@H]2C(=O)O[C@H](c3ccccc3)[C@H](c3ccccc3)N2[C@@H]1c1ccc(OCCO)cc1)C(=O)OC", "composite z-score", 0.68),
    ("O=C1NC(=O)C2C1C=CC(C(O)c1cccc3ccccc13)N2Nc1ccc(Cl)cc1Cl (configuration not stated)", "composite z-score", -0.459),
    ("CCCCC(O)C1C=CC2C(=O)N(c3ccccc3)C(=O)C2N1Nc1ccc(C(C)C)cc1 (configuration not stated)", "composite z-score", 0.341),
    ("COCCOC(=O)N1C(=O)[C@@]2(c3cc(C#CC4=CCCCC4)ccc31)[C@H](c1ccc(O)cc1)N1[C@H](c3ccccc3)[C@H](c3ccccc3)OC(=O)[C@H]1[C@@H]2C(=O)N1CCN(c2ncccn2)CC1", "composite z-score", -1.04),
    ("C=CCNC(=O)[C@@H]1[C@H]2C(=O)O[C@H](c3ccccc3)[C@H](c3ccccc3)N2[C@H](c2ccc(O)cc2)[C@@]12C(=O)N(C(=O)OCCOC)c1ccc(C#CC3(O)CCCCCC3)cc12", "composite z-score", -1.5),
    ("C=C(/C(=C/C[C@H](OC(C)=O)c1ccccc1OCCO)c1cc(C(=O)OC)ccc1OC)C(C)C", "composite z-score", -0.167),
    ("COCCCNC(=O)[C@]1(CCS(=O)(=O)c2ccccc2)N=C(c2ccc(OCCCO)cc2)O[C@@H]1c1ccccc1CN=[N+]=[N-]", "composite z-score", 0.233),
    ("C=CCC(OC(C)=O)[C@@H]1[C@@H](N(Cc2ccc(-c3cccc(C(F)(F)F)c3)o2)C(=O)c2ccc(-c3ccccc3)cc2)c2cc(OCCCO)ccc2N1C(=O)c1ccc2ccccc2n1 (some centres not stated)", "composite z-score", -0.049),
    ("CC1=C([C@H](O)CCc2ccccc2)[C@H](CO)[C@@H]2C(=O)N(C)C(=O)[C@@H]2C1", "composite z-score", 0.243),
    ("CN1C(=O)C2C=CC(C(O)COCc3ccccc3)N(N(c3ccccc3)c3ccccc3)C2C1=O (configuration not stated)", "composite z-score", 0.238),
    ("COc1ccc(C#Cc2ccc3c(c2)[C@]2(C(=O)N3)[C@H](c3ccc(O)cc3)N3[C@H](c4ccccc4)[C@H](c4ccccc4)OC(=O)[C@H]3[C@@H]2C(=O)O)cc1", "composite z-score", -0.209),
    ("O=C1O[C@H](c2ccccc2)[C@H](c2ccccc2)N2[C@H]1[C@@H](C(=O)Nc1nc3ccccc3s1)[C@]1(C(=O)Nc3ccc(C#CC4(O)CCCCCC4)cc31)[C@H]2c1ccccc1OCCO", "composite z-score", 0.49),
    ("COCCCNC(=O)[C@@]1(Cc2ccccc2CN=[N+]=[N-])N=C(c2ccc(OCCCO)cc2)O[C@H]1c1ccccc1", "composite z-score", -0.331),
    ("COc1cc(OC)c(C(O)C2C=CC3C(=O)N(c4ccccc4)C(=O)C3N2Nc2ccccc2)cc1Br (configuration not stated)", "composite z-score", -0.487),
    ("OCC1CC(c2ccccc2)=NO1 (configuration not stated)", "composite z-score", 0.37),
    ("CCOC(=O)C[C@H]1[C@H](OC(=O)c2cc3ccccc3oc2=O)[C@@H](NC(=O)Cc2ccc(OC)cc2)c2cc(OCCCO)ccc2N1C(=O)c1ccc2ccccc2n1", "composite z-score", 0.409),
    ("CC(C)C[C@@H]1NC(=O)[C@@H]2C[C@H](C(=O)NCCCCCN)[C@H](c3ccc(O)cc3)N2C1=O", "composite z-score", 0.0233),
]
